- measuredTarget: human JAK1 kinase domain (JH1) (Homo sapiens, UniProt P23458)
- Construct: recombinantly generated catalytic kinase (also known as JH1) domain of human JAK1, JAK2, JAK3 and TYK2
- Sequence (P23458 875-1153 limits assumed): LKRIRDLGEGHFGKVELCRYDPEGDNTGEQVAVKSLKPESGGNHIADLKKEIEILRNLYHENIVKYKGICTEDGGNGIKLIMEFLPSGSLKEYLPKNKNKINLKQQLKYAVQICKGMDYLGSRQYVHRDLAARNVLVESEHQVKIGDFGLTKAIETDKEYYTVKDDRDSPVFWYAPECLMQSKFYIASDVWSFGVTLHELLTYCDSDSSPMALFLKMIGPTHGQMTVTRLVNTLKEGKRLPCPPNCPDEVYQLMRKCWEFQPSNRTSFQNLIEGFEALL
- assayOverview: JH1 biochemical assay for JAK1 (ADP-Glo kinase assay, recombinant JH1 catalytic domain, JAK3-342 peptide, 35 μM ATP)
- appliedConditions: JAK1 JH1, ADP-Glo
pIC50: −log10 of the molar value. Where a name gives a salt, the structure may show the parent alone.
The molecules listed here are annotated with their pIC50.
measuredEndpoint: pIC50

| molecule | measuredEndpoint | recordedMeasurement |
| --- | --- | --- |
| C[C@@H]1CN(c2nc(-c3ncc[nH]3)cn3nccc23)C(=O)[C@]1(C#N)C1CC1 [Example 247, trifluoroacetate] | pIC50 | < 5.00 |
| C[C@@H]1CN(c2nc(-c3cnn([C@H]4CO[C@@H]4C)c3)cn3ncc(F)c23)C(=O)[C@]1(C#N)C1CC1 (relative stereo) | pIC50 | > 7.00 |
| C[C@@H]1CN(c2ccnn3cc(-n4cccn4)cc23)C(=O)[C@]1(C#N)C1CC1 | pIC50 | 6.00 to 7.00 |
| C[C@@H]1CN(c2ccnn3cc(-c4cnn([C@H]5C[C@@H](C#N)C5)c4)cc23)C(=O)[C@]1(C#N)C1CC1 | pIC50 | > 7.00 |
| C[C@@H]1CN(c2nc(-c3cnn(C4(C)COC4)c3)cn3ncc(F)c23)C(=O)[C@]1(C#N)C1CC1 | pIC50 | > 7.00 |
| C[C@@H]1CN(c2nc(-c3cncc(O)c3)cn3nccc23)C(=O)[C@]1(C#N)C1CC1 [Example 258, trifluoroacetate] | pIC50 | > 7.00 |
| C[C@@H]1CN(c2ccnn3cc(-c4cnn([C@H]5COCC(F)(F)C5)c4)cc23)C(=O)[C@]1(C#N)C1CC1 (single isomer, unassigned) | pIC50 | > 7.00 |
| C[C@@H]1CN(c2ccnn3cc(-c4cnn(C5CC6(C5)CN(C)C6)c4)cc23)C(=O)[C@]1(C#N)C1CC1 | pIC50 | 6.00 to 7.00 |
| C[C@@H]1CN(c2ccc3ncc(-c4cnn(C)c4)cn23)C(=O)[C@]1(C#N)C1CC1 | pIC50 | < 5.00 |
| C[C@@H]1OC[C@@H]1n1cc(-c2cn3ncc(F)c3c(N3C[C@@H](C)[C@@](C#N)(C4CC4)C3=O)n2)cn1 (relative stereo) | pIC50 | > 7.00 |
| C[C@@H]1CN(c2ccnn3cc(-c4cnn(C5CCN(C)CC5)c4)cc23)C(=O)[C@]1(C#N)C1CC1 | pIC50 | 6.00 to 7.00 |
| C[C@@H]1CN(c2ccnn3cc(-c4cn(C5COC5)nc4F)cc23)C(=O)[C@]1(C#N)C1CC1 | pIC50 | 6.00 to 7.00 |
| C[C@@H]1CN(c2nc(-c3ccn(C)c(=O)c3)cn3nccc23)C(=O)[C@]1(C#N)C1CC1 [Example 261, trifluoroacetate] | pIC50 | 6.00 to 7.00 |
| C[C@@H]1CN(c2cc(-c3cnn(C(F)F)c3)cn3ncc(F)c23)C(=O)[C@]1(C#N)C1CC1 | pIC50 | 5.30 to 6.00 |
| CC(C)[C@@]1(C#N)C(=O)N(c2nc(-c3cnn(C)c3)cn3ncc(F)c23)C[C@H]1C | pIC50 | 6.00 to 7.00 |
| C[C@@H]1CN(c2ccnn3cc(-c4cnn(CC5(C)COC5)c4)cc23)C(=O)[C@]1(C#N)C1CC1 | pIC50 | > 7.00 |
| C[C@@H]1CN(c2nc(-c3cnn([C@H]4C[C@@H](C#N)C4)c3)cn3ncc(F)c23)C(=O)[C@]1(C#N)C1CC1 | pIC50 | > 7.00 |
| C[C@@H]1CN(c2ccnc3cc(-c4cnn(C56CC(C5)C6)c4)oc23)C(=O)[C@]1(C#N)C1CC1 | pIC50 | 6.00 to 7.00 |
| C[C@@H]1CN(c2nc(-c3ccnn3C)cn3nccc23)C(=O)[C@]1(C#N)C1CC1 [Example 254, trifluoroacetate] | pIC50 | 6.00 to 7.00 |
| COc1ncc(-c2cn3nccc3c(N3C[C@@H](C)[C@@](C#N)(C4CC4)C3=O)n2)cc1C#N [Example 262, trifluoroacetate] | pIC50 | < 5.00 |
| C[C@@H]1CN(c2nc(-c3cnn(CC4(C)COC4)c3)cn3ncc(F)c23)C(=O)[C@]1(C#N)C1CC1 | pIC50 | > 7.00 |
| C[C@@H]1CN(c2nc(-c3cnn(C4CC5(COC5)C4)c3)cn3nccc23)C(=O)[C@]1(C#N)C1CC1 | pIC50 | > 7.00 |
| Cc1cnn(-c2cc3c(N4C[C@@H](C)[C@@](C#N)(C5CC5)C4=O)ccnn3c2)n1 | pIC50 | < 5.00 |
| C[C@@H]1CN(c2cc(-c3cnn(C4COC4)c3)cc3ncsc23)C(=O)[C@]1(C#N)C1CC1 | pIC50 | > 7.00 |
| C[C@@H]1CN(c2nc(-c3cnn(C)c3)cc3ncsc23)C(=O)[C@]1(C#N)C1CC1 | pIC50 | > 7.00 |
| C[C@@H]1CN(c2nc(-c3cnn(CC4COC4)c3)cn3ncc(F)c23)C(=O)[C@]1(C#N)C1CC1 | pIC50 | > 7.00 |
| C[C@@H]1CN(c2nc(-c3ccn(C)n3)cn3nccc23)C(=O)[C@]1(C#N)C1CC1 [Example 229, trifluoroacetate] | pIC50 | 5.30 to 6.00 |
